Experiment: yeast display, Sf9 membrane polyspecificity reagent, FACS + sequencing; frameworks hold sequencing errors
MEASUREMENT_LABEL: polyreactivity (PSR sort gate)

QVQLVESGGGLVQAGGSLRLSCAASGIIFRRYAMGWYRQAPGKERELVAAIRTSGGNTYYADSVKGRFTISRDNAKNTVYLQMNSLKPEDTAVYYCAARRHYTYGNGPSRGGQMDYWGQGTQVTVSS | high polyreactivity
QVQLVESGGGLVQAGGSLRLSCAASGYTFQENAMGWYRQAPGKERELVAAISYGGGSTYYADSVKGRFTISRDNAKNTVYLQMNRLKPEDTAVYYCADDGGSAYAWYFAELYGYWGQGTQVTVSS | low polyreactivity
QVQLVESGGGLVQAGGSLRLSCAASGSTFNVNAMGWYSQAPGKERELVATISSGGSTNYADSVKGRFTISRDNAKNTVYLQMNSLKPEDTAVYYCAKEYGSIIPYDYWGQGTQVTVSS | low polyreactivity
QVQLVESGGGLVQAGGSLRLSCAAYGRTFYGYAMGWYRQAPGKEREFFAAITWRGGSTYYADSVKGRFSISRDNAKNNVFLQMNSLKPEDTAVYYCAADYRVYTRYGLRKFDYWGQCTQVTVSS | high polyreactivity
QVQLVESGAGLFQAGGRLRLSCAPSGSTFGTYAMGWYRQAPGKERELVAAITSGGSTDYADSVKGRFTISRDNAKNTVYLQMNSLKPEDTAVYYCNATWELLSYYYLFWGYDYWGQGTQVTVSS | low polyreactivity

Lab note: QDQHVESGRGLVQAGGSLRLSCAASGLIFPRNAMGWYRQAPGKERELVAVISRSGTSTYYADSVKGRFTISRDNAKNTVYLQMNSLKPEDTAVYYCAAYSRRGSSLRGRYGYWGQGTQVTVSS gave polyreactivity (PSR sort gate) of high polyreactivity

For QVQLVESGGGLVQAGGSLRLSCAASGRTFGFYAMGWYRQAPGKERELVASITWRRGRTYYADSVKGRFTISRDNAKNTLYLQMNSLNPEDTAVYYCAAVTFSYDGYDYWGQGTQVTVSS the sequence record lists polyreactivity (PSR sort gate) as low polyreactivity

// sample QVQLVESGGGLVQAGGSLRLSCAASGRILFRYGMGWYRQAPGKERELVARISWSGGNTHYADSVKGRFTISRDNAKNTVYLQMNSLKPDDTAVYYCNAYYTYWYPRYDYWGQGTQVTVSS , its polyreactivity (PSR sort gate) was low polyreactivity

In plain terms, QVQLVESGGGLVQAGGSLRLSCAASGFTFVGNAMGWYRQAPGKERELVATITSGGNTKYADSVKGRFTISRDNAKNTVYLQMNILKPEDTAVYYCAADSDSFWGVPSYYWGQGTQVTVSS has a documented polyreactivity (PSR sort gate) of low polyreactivity

Per the records, this sequence ( QVQLVESGGVLVQAGGSLRLSCAASGSIFEPYVMGWYRQPPGKERELVAAIRQSGGSTYYADSVKGRFTISRDNAKNTVYLQMNSLKPEDTAVYYCNAEQNPSGLYDYRGVEGEMGYWRQGTQVTVSS ) has polyreactivity (PSR sort gate) equal to low polyreactivity

According to the records, this sequence QVQLVESGGGLVQAGGSLRLSCAASGSNFSSNAMGWYRQAPGKERELFAAITWSGGSTYYADSVKGRFTISRDNAKKTVYFEMNSLKPEDTAGFYCNARRNVRQTFGYEYWGQGTQVTVSS displays polyreactivity (PSR sort gate) of high polyreactivity

Entry under test: QVQLVESGGGLVQAGGSLRLSCAASGSTYISYAMGWYRQAPGKERELVAAITVSGGRTYYADSVKGRFTISRDNAKNTVYLQMNSLKPEDTAVYYCARGYARSRRWRFDYWGQGTQVTVSS . Its polyreactivity (PSR sort gate) was high polyreactivity

Entry QVQLVESGGGLVQAGGSLRLSCAASGSIFPAYAMGWYRQAPGKERELVAAITGSGGSTYYADSVKGRFTISRDNAKNTVYLQLNSLKPEDTAVYYCAATIRQFRRYDYWGQGTQVTVSS , polyreactivity (PSR sort gate) reported as low polyreactivity

Entry QVQLVESGGGLVQAGGSLRLSCAPSGSILWQYAMGWYRQAPGKERELVAAITYSGGSTHYADSVKGRFTISRDNAKNTVYLQMNSLKPEETAVYYCAAGYWYRYAALRYDHWGQGTQVTVSS ; polyreactivity (PSR sort gate) = low polyreactivity

Noted for QVQLVESGGGLVQAGGSLRLSCAASGRIFGAYAMGWYRPAPGKERELVAAISARGGRTYYADSVKGRFTISRDNAKNTVYLQMNSLKPEDTAVYYCAKTLRDPYRYDYWGQGTQVTVSS : its polyreactivity (PSR sort gate) reads high polyreactivity
